system: SN12C renal; test: NCI-60 one-dose screen, 48 h (100 = growth as untreated, 0 = no growth, -100 = all killed); settings: 10 µM unless noted
The panel holds about 83,000 compounds, 20% with a hit somewhere; the sample as a whole holds those more often.
REPORTED PROPERTY: growth (%)
The answer is to be given in %; state only the numeric part.

The examples below pair each entry with its known result.
>>> df
                                   compound  unit_text  recorded_value
0  CN1CCN(Cc2ccc(NC(=O)c3[nH]ncc3Nc3ccnc4ccsc34)cc2)CC1          %            21.3
1  COc1ccc(-c2cn3c(-c4ccc(OC)cc4)cnc3c(Oc3ccc4c(C)cc(=O)oc4c3)n2)cc1          %            24.5
2     Oc1cc(O)c2c(=S)cc(-c3ccc(Cl)cc3)oc2c1          %            25.5
3             CNC(=S)N/N=C/CSC/C=N/NC(=S)NC          %             104

(Q) // growth lookup, key: `CC1=C(NCCN2CCCC2)C(=O)c2c(OCc3cccc(Cl)c3)cccc2C1=O`
(A) 75.2

(Q) Again, but for CC1CN(C(C)C)C(=S)N(c2ccccc2)C1=O (stereo unspecified)
(A) 101
